Taken from ChEMBL document CHEMBL4665659.

target: RAF proto-oncogene serine/threonine-protein kinase (Homo sapiens) (UniProt P04049); assay: Inhibition of human wild type partial length C-Raf (I330 to T640 residues) expressed in bacterial expression system at 1 uM by Kinomescan method relative to control
Sequence (P04049 whole entry, the tested form may be a part): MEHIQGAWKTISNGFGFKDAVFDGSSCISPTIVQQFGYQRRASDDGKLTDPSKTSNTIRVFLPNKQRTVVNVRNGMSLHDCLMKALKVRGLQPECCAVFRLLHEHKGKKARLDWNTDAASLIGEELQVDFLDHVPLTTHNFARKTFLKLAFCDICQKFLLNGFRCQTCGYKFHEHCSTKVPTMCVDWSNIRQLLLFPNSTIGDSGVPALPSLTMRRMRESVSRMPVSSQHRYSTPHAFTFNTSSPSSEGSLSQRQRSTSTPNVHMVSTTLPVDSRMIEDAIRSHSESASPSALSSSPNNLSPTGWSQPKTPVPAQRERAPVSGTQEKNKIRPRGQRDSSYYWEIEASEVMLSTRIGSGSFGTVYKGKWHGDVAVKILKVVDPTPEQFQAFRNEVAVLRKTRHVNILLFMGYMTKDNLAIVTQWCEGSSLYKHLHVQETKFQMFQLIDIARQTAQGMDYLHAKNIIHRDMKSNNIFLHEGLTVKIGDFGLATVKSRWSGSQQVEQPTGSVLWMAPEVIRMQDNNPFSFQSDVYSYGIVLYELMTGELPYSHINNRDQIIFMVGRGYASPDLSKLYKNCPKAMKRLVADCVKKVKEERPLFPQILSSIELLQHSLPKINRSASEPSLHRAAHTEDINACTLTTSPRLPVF
Some compounds, each annotated with its measured inhibition.
Entry rule: numbers only, all in %.

Recorded inhibition for "COc1cc(Nc2ccnc3cc(Cl)ccc23)cc(OC)c1OC" , please?
70

And what about the compound "COc1cc(Nc2ccnc3cc(C#N)ccc23)cc(OC)c1OC" ?
70

And what about the compound "COc1cc(Nc2ccnc3cc(I)ccc23)cc(OC)c1OC" ?
70

And what about the compound "COc1ccc2c(Nc3cc(OC)c(OC)c(OC)c3)ccnc2c1" ?
20

And what about the compound "COc1cc(Nc2ccnc3cc(Br)ccc23)cc(OC)c1OC" ?
70

And what about the compound "COc1cc(Nc2ccnc3cc(C(F)(F)F)ccc23)cc(OC)c1OC" ?
70

---

target: UniProtKB P06239
Sequence (P06239 whole entry): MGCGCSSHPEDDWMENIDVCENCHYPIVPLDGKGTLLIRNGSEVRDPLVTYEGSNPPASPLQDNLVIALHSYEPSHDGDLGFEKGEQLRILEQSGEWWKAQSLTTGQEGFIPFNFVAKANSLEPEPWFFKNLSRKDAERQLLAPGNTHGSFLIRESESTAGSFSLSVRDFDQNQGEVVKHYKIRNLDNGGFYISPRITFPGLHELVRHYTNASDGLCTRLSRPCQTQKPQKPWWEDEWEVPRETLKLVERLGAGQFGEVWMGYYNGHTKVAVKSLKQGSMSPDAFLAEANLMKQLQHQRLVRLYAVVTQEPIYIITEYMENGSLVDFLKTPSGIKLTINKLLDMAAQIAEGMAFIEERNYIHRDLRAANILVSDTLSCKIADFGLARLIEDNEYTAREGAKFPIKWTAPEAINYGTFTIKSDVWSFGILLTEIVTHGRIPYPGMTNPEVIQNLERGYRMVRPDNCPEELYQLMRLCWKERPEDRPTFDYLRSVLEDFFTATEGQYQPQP
observedProperty: Kd (µM)
Entry rule: numbers only, all in µM.

Please state recorded Kd (tested on UniProtKB P06239) of "COc1cc(Nc2ccnc3ccc(C(F)(F)F)cc23)cc(OC)c1OC"
1.1

---

Target: Dual specificity mitogen-activated protein kinase kinase 5 (Homo sapiens)
Sequence (Q13163 whole entry): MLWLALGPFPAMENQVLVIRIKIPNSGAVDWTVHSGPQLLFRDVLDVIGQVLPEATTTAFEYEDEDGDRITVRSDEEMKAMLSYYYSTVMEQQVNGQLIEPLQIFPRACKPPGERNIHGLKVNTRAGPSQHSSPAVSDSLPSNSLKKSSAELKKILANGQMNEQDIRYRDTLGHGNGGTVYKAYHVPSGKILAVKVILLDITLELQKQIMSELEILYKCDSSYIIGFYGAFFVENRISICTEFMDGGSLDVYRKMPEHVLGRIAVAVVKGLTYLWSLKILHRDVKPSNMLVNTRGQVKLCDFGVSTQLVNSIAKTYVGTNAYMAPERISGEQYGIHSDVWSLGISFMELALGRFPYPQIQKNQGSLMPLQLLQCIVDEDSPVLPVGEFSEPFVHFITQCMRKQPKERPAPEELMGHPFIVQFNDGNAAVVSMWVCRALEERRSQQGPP
Test: Binding affinity to human wild type partial length MEK5 (L98 to P448 residues) expressed in mammalian expression system by Kinomescan method
observedProperty: pKd
// pKd: -log10(molar conc.)

Please state recorded pKd (tested on Dual specificity mitogen-activated protein kinase kinase 5 (Homo sapiens)) of "COc1cc2nccc(Nc3cc(OC)c(OC)c(OC)c3)c2cc1OC"
6.37

---

Some compounds, each annotated with its measured Kd.
target: Tyrosine-protein kinase ABL1 (Homo sapiens, UniProt P00519); assay: Binding affinity to human wild type partial length non-phosphorylated ABL1 (S229 to K512 residues) expressed in mammalian expression system by Kinomescan method
Sequence (P00519 whole entry, the tested form may be a part): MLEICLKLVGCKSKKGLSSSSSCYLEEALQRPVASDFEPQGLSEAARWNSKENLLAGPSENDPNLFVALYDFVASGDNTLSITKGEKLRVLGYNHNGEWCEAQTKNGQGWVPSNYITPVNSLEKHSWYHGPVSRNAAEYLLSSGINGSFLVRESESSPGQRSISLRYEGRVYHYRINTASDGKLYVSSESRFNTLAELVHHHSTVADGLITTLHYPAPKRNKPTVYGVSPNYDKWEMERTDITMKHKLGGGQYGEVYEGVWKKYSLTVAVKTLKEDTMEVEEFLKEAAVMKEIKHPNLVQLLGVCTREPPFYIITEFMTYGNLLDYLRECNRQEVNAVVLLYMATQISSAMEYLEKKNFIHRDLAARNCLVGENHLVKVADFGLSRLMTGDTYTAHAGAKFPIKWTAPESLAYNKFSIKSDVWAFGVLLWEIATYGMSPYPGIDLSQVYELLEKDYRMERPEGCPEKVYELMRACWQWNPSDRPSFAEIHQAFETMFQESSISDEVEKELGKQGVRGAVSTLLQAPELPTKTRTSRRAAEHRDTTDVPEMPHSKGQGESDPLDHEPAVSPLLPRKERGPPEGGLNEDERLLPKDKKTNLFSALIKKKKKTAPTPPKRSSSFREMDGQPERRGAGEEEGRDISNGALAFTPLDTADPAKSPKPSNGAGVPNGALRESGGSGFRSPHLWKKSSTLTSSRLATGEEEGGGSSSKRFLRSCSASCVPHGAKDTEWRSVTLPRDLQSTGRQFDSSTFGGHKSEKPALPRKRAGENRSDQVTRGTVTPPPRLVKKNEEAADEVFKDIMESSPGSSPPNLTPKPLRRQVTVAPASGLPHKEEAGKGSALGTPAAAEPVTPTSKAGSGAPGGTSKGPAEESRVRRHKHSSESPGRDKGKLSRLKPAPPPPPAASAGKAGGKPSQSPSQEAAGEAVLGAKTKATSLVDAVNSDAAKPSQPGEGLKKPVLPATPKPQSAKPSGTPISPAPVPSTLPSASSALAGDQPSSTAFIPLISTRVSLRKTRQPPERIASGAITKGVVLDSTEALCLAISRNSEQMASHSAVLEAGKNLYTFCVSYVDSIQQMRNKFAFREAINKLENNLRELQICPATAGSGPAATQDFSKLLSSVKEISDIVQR
Answer shape: numeric part, then the unit.

Example compounds with recorded Kd:
Recorded Kd for "COc1cc(Nc2ccnc3ccc(C(F)(F)F)cc23)cc(OC)c1OC" , please?
1900 nM

And what about the compound "COc1cc(Nc2ccnc3ccc(Br)cc23)cc(OC)c1OC" ?
1200 nM

Then this compound:
Recorded Kd for "COc1cc2nccc(Nc3cc(OC)c(OC)c(OC)c3)c2cc1OC" , please?
170 nM

---

biological target: Ephrin type-A receptor 8 (Homo sapiens, UniProt P29322)
observedProperty: Kd (nM)
Entry rule: numbers only, all in nM.

Recorded Kd for "COc1cc(Nc2ccnc3ccc(C(F)(F)F)cc23)cc(OC)c1OC" , please?
1100

---

biological target: UniProt:P42681; experiment: Binding affinity to wild-type human partial length TXK (L238 to W527 residues) expressed in bacterial expression system by Kinomescan method
Sequence (P42681 whole entry, the tested form may be a part): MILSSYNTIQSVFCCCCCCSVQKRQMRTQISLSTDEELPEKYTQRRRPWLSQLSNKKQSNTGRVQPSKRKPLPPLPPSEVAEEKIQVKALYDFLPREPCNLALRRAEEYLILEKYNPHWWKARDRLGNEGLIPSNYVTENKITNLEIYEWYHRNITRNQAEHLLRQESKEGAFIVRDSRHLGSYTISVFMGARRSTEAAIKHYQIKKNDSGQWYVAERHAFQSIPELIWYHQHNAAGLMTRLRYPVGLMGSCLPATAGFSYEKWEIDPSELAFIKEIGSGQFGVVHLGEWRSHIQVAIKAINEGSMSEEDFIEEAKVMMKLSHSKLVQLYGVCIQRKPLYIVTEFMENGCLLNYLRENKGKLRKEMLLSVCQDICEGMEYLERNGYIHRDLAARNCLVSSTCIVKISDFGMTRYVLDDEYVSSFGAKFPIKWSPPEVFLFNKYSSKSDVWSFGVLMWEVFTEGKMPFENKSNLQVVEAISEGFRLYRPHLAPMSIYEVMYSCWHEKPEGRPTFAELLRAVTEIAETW
observedProperty: Kd
Answer shape: numeric part, then the unit.

Please state recorded Kd (tested on UniProt:P42681) of "COc1cc(Nc2ccnc3ccc(C(F)(F)F)cc23)cc(OC)c1OC"
1400 nM

---

Let's go through some Kd measurements on Cyclin-G-associated kinase (Homo sapiens, UniProt O14976) together.
Sequence (O14976 whole entry): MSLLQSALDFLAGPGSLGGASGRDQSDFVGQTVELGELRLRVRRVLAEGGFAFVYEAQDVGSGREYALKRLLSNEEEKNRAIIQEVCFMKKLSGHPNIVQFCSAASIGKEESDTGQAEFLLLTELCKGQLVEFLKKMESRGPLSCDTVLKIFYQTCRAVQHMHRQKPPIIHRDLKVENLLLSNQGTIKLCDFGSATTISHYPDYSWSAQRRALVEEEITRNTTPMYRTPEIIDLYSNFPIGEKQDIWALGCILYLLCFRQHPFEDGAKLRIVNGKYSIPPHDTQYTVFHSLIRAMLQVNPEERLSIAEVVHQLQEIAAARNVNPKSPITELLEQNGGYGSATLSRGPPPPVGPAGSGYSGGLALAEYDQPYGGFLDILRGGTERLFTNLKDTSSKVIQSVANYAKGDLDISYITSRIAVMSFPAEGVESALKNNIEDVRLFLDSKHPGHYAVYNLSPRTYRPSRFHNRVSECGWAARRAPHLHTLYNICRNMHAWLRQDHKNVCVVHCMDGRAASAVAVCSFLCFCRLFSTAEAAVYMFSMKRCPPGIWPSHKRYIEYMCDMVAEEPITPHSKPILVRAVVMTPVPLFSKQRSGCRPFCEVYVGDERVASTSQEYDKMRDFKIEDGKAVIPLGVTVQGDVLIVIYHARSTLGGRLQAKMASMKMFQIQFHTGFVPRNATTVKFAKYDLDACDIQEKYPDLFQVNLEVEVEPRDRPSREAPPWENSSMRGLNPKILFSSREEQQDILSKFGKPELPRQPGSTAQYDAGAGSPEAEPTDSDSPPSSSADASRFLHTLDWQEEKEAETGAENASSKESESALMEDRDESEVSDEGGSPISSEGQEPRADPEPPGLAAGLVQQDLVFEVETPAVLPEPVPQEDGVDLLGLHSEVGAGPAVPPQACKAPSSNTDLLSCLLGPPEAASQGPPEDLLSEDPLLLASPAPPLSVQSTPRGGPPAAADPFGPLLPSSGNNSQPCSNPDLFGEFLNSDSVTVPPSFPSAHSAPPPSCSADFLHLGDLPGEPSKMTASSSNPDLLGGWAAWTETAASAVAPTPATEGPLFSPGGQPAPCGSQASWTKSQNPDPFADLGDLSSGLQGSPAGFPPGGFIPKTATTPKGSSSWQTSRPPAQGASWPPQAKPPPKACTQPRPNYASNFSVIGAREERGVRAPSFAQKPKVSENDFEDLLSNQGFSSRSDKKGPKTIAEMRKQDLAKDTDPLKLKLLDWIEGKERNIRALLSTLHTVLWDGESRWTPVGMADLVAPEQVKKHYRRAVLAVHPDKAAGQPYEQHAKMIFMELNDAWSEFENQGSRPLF
Entry rule: numbers only, all in nM.

Example compounds with recorded Kd:
Please state recorded Kd (tested on Cyclin-G-associated kinase (Homo sapiens, UniProt O14976)) of "COc1cc(Nc2ccnc3cc(I)ccc23)cc(OC)c1OC"
7.6

And what about the compound "COc1cc2nccc(Nc3cc(OC)c(OC)c(OC)c3)c2cc1OC" ?
11

And what about the compound "COc1cc(Nc2ccnc3cc(Br)ccc23)cc(OC)c1OC" ?
8.6

And what about the compound "COc1cc(Nc2ccnc3ccc(C#N)cc23)cc(OC)c1OC" ?
4.9

And what about the compound "COc1cc(Nc2ncnc3ccc(C(F)(F)F)cc23)cc(OC)c1OC" ?
130

And what about the compound "COc1cc(Nc2ccnc3ccc(C(C)(C)C)cc23)cc(OC)c1OC" ?
34

And what about the compound "COc1cc(Nc2ccnc3ccc(Cl)cc23)cc(OC)c1OC" ?
6.3

Then this compound:
Please state recorded Kd (tested on Cyclin-G-associated kinase (Homo sapiens, UniProt O14976)) of "COc1cc(Nc2ccnc3cc(Cl)ccc23)cc(OC)c1OC"
13

---

biological target: UniProt:P00519; assay: Binding affinity to human wild type partial length phosphorylated ABL1 (S229 to K512 residues) expressed in mammalian expression system by Kinomescan method
observedProperty: Kd (nM)
Entry rule: numbers only, all in nM.

Recorded Kd for "COc1cc2nccc(Nc3cc(OC)c(OC)c(OC)c3)c2cc1OC" , please?
92
